Target: human PHD2 (Homo sapiens (Human))
Assay: Test 2: human PHD2 inhibitory activity, fluorescence polarization assay of HIF-1α peptide proline hydroxylation
Assay type: biochemical
Details: test compound's concentration 1 μM; Test 2, fluorescence polarization assay; read-out: Percent inhibition (% at 1 μM)
# inhibition at 1 µM listing for each entry below

CHEMICAL_SMILES: Cc1ccc(Oc2ccc(CN3CC4(CCC4)C(O)=C(C(=O)NCC(=O)O)C3=O)cn2)cc1
TARGET_OF_ASSAY: human PHD2 (Homo sapiens (Human))
inhibition at 1 µM, %: 94
--
CHEMICAL_SMILES: COC[C@@H]1CC(O)=C(C(=O)NCC(=O)O)C(=O)N1Cc1ccc(OCC2CC2)cc1
TARGET_OF_ASSAY: human PHD2 (Homo sapiens (Human))
inhibition at 1 µM, %: 70
--
CHEMICAL_SMILES: O=C(O)CNC(=O)C1=C(O)CN(Cc2ccc(-c3ccccc3)cc2)C1=O
TARGET_OF_ASSAY: human PHD2 (Homo sapiens (Human))
inhibition at 1 µM, %: 96
--
CHEMICAL_SMILES: O=C(O)CNC(=O)C1=C(O)CCN(Cc2ccc(COc3ccc(C(F)(F)F)nc3)cc2)C1=O
TARGET_OF_ASSAY: human PHD2 (Homo sapiens (Human))
inhibition at 1 µM, %: 96
--
CHEMICAL_SMILES: Cc1cc(CN2CCC(O)=C(C(=O)NCC(=O)O)C2=O)ccc1OCC(F)(F)F
TARGET_OF_ASSAY: human PHD2 (Homo sapiens (Human))
inhibition at 1 µM, %: 84

###

Target: human PHD2 (Homo sapiens (Human), UniProt Q9GZT9)
Sequence (Q9GZT9 whole entry): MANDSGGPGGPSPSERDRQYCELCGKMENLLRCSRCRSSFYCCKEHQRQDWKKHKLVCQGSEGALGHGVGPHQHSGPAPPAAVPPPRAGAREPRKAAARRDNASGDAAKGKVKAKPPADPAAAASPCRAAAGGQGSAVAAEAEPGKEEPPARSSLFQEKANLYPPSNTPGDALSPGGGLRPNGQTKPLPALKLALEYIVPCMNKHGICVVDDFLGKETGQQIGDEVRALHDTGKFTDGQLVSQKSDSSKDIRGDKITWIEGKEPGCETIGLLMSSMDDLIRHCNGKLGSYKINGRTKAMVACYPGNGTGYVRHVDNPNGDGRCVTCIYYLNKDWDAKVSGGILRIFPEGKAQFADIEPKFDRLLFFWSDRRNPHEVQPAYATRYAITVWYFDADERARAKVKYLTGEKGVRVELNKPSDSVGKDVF
Assay: Test 2: human PHD2 inhibitory activity, fluorescence polarization assay of HIF-1α peptide proline hydroxylation
Assay type: biochemical
Details: test compound's concentration 1 μM; Test 2, fluorescence polarization assay; read-out: Percent inhibition (% at 1 μM)
Counter-ions that a name gives are not always drawn.
Where inhibition at 1 µM equals or exceeds 80%, the correct label is label 1; where it does not, the label is label 0.

MOLECULE: O=C(O)CNC(=O)C1=C(O)CCN(Cc2ccc3c(c2)OC(F)(F)O3)C1=O [Ex. 1-152]
QUALITATIVE_LABEL: label 1
//
MOLECULE: O=C(O)CNC(=O)C1=C(O)CCN(Cc2ccc(Cc3ccccc3)cc2)C1=O [Ex. 1-42]
QUALITATIVE_LABEL: label 1
//
MOLECULE: O=C(O)CNC(=O)C1=C(O)CCN(Cc2ccc(-c3ccc(Cl)cc3)cc2)C1=O [Ex. 2-11]
QUALITATIVE_LABEL: label 1
//
MOLECULE: Cc1ccc(Oc2ncc(CN3CCC(O)=C(C(=O)NCC(=O)O)C3=O)cc2Cl)cc1 [Ex. 1-392]
QUALITATIVE_LABEL: label 1
//
MOLECULE: CC1(C)CC(O)=C(C(=O)NCC(=O)O)C(=O)N1Cc1cc(-c2ccc(Cl)cc2)on1 [Ex. 1-216]
QUALITATIVE_LABEL: label 0
//
MOLECULE: O=C(O)CNC(=O)C1=C(O)C2(CCC2)CN(Cc2ccc(OC3CC3)cc2)C1=O [Ex. 1-363]
QUALITATIVE_LABEL: label 0
//
MOLECULE: Cc1cc(CN2CCC(O)=C(C(=O)NCC(=O)O)C2=O)ccc1OCc1ccc(F)cc1 [Ex. 1-388]
QUALITATIVE_LABEL: label 1
//
MOLECULE: O=C(O)CNC(=O)C1=C(O)C[C@H](c2cccnc2)N(Cc2ccc(OCC3CC3)cc2)C1=O [Ex. 6-19]
QUALITATIVE_LABEL: label 0
//
MOLECULE: O=C(O)CNC(=O)C1=C(O)CC2(CCOCC2)N(Cc2ccc(-c3ccccn3)cc2)C1=O [Ex. 1-105]
QUALITATIVE_LABEL: label 1
//
MOLECULE: COc1ccccc1-c1ccc(CN2CCC(O)=C(C(=O)NCC(=O)O)C2=O)cn1 [Ex. 2-52]
QUALITATIVE_LABEL: label 1
//
MOLECULE: O=C(O)CNC(=O)C1=C(O)CCN(Cc2ccc3c(c2)CCC3)C1=O [Ex. 1-269]
QUALITATIVE_LABEL: label 1
//
MOLECULE: O=C(O)CNC(=O)C1=C(O)C2(CC2)CN(Cc2ccc(OC(F)(F)F)cc2)C1=O [Ex. 1-208]
QUALITATIVE_LABEL: label 1
//
MOLECULE: CC1CC(O)=C(C(=O)NCC(=O)O)C(=O)N1Cc1ccc(-c2ccc(F)cc2)cc1 (stereo not shown) [Ex. 1-177]
QUALITATIVE_LABEL: label 1
//
MOLECULE: CC1(C)CC(O)=C(C(=O)NCC(=O)O)C(=O)N1Cc1ccc(OCC2CC2)nn1 [Ex. 6-33]
QUALITATIVE_LABEL: label 0
//
MOLECULE: O=C(O)CNC(=O)C1=C(O)CC2(CCN(Cc3ccccc3)CC2)N(Cc2ccc(-c3ccccc3)cc2)C1=O [Ex. 7-2, trifluoroacetate]
QUALITATIVE_LABEL: label 1
//
MOLECULE: O=C(O)CNC(=O)C1=C(O)CCN(Cc2ccc(-c3ccc(C4CC4)nc3)cc2)C1=O [Ex. 1-414]
QUALITATIVE_LABEL: label 1
//
MOLECULE: O=C(O)CNC(=O)C1=C(O)C[C@H](CO)N(Cc2ccc(OCC3CC3)cc2)C1=O [Ex. 6-30]
QUALITATIVE_LABEL: label 0
//
MOLECULE: O=C(O)CNC(=O)C1=C(O)CCN(Cc2ccc(-c3ccc(C4CC4)cc3)nc2)C1=O [Ex. 2-48]
QUALITATIVE_LABEL: label 1
//
MOLECULE: O=C(O)CNC(=O)C1=C(O)CC2(COC2)N(Cc2cnc(-c3ccccc3)s2)C1=O [Ex. 1-123]
QUALITATIVE_LABEL: label 1
//
MOLECULE: Cc1ccc(-c2ccc(CN3CCC(O)=C(C(=O)NCC(=O)O)C3=O)cc2)cc1 [Ex. 2-1]
QUALITATIVE_LABEL: label 1
//
MOLECULE: COc1ccnc(-c2ccc(CN3CCC(O)=C(C(=O)NCC(=O)O)C3=O)cc2)c1 [Ex. 1-436]
QUALITATIVE_LABEL: label 1
//
MOLECULE: CCC(c1ccc(C(F)(F)F)cc1)N1CCC(O)=C(C(=O)NCC(=O)O)C1=O (stereo not shown) [Ex. 1-153]
QUALITATIVE_LABEL: label 0
//
MOLECULE: CC(Cc1ccc(Cl)cc1)N1CCC(O)=C(C(=O)NCC(=O)O)C1=O (stereo not shown) [Ex. 1-452]
QUALITATIVE_LABEL: label 0
//
MOLECULE: O=C(O)CNC(=O)C1=C(O)CCN(Cc2ccc(Oc3cccc(F)c3)nc2)C1=O [Ex. 1-256]
QUALITATIVE_LABEL: label 1
//
MOLECULE: O=C(O)CNC(=O)C1=C(O)CCN(Cc2ccc(C(F)(F)F)cc2C(F)(F)F)C1=O [Ex. 1-54]
QUALITATIVE_LABEL: label 0
//
MOLECULE: O=C(O)CNC(=O)C1=C(O)CC2(CCCCC2)CN(Cc2ccccc2)C1=O [Ex. 1-310]
QUALITATIVE_LABEL: label 0
//
MOLECULE: Cc1cccc(-c2ccc(CN3CCC(O)=C(C(=O)NCC(=O)O)C3=O)cc2)c1 [Ex. 2-25]
QUALITATIVE_LABEL: label 1
